Give Kb for every item shown.
Biological target: 5-hydroxytryptamine receptor 7 (Homo sapiens, UniProt P34969)
Sequence (P34969 whole entry): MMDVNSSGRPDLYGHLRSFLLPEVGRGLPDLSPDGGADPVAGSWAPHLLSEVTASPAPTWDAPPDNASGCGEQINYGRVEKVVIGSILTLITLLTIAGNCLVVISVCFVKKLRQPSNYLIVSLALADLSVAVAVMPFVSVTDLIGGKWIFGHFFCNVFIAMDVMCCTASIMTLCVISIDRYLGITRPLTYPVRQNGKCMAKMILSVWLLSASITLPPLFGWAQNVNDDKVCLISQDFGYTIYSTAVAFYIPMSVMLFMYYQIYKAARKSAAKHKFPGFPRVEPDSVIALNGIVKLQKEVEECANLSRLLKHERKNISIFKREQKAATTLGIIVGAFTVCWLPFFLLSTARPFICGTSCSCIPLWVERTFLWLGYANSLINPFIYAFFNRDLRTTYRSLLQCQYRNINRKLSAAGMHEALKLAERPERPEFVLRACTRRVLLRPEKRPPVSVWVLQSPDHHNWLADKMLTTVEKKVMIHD
Experiment: Antagonist activity at human 5-HT7B receptor expressed in HEK293 cells assessed as inhibition of 5-carboxamidotryptamine-induced cAMP production
Type: functional, cell-based
Give bare numbers, in nM.

A selection of reference data follows.
{"structure": "CN(C1CCN(CCOc2ccccc2-c2ccccc2)CC1)S(=O)(=O)c1cnn(C)c1", "assayTarget": "5-hydroxytryptamine receptor 7 (Homo sapiens, UniProt P34969)", "Kb / nM": 41}
{"structure": "Cn1cc(S(=O)(=O)N(CC2CC2)C2CCN(CCOc3ccccc3-c3ccccc3)CC2)cn1", "assayTarget": "5-hydroxytryptamine receptor 7 (Homo sapiens, UniProt P34969)", "Kb / nM": 79}
{"structure": "Cn1cc(S(=O)(=O)N(CC2CC2)C2CCN(CCOc3ccccc3C(C)(C)C)CC2)cn1", "assayTarget": "5-hydroxytryptamine receptor 7 (Homo sapiens, UniProt P34969)", "Kb / nM": 64}

# context switch: different molecule, same Kb
Q: Return Kb (reported value) for this molecule: `CN(C1CCN(CCOc2ccccc2C(C)(C)C)CC1)S(=O)(=O)c1cnn(C)c1`
Ans: 82

Data credit: ChEMBL document CHEMBL3745654
